Attribute: Emax
molecular target: human mGlu2 receptor (Homo sapiens, UniProt Q14416); construct: expressed in transfected cells; host or cells: CHO cells; assay: [35S]GTPγS binding assay (mGluR2 negative allosteric modulation, glutamate ~EC80 60 μM); type: biochemical; conditions: maximal % inhibition relative to the control glutamate response (EC80 glutamate); read-out: GTPγS-hmGluR2 anGT Emax
Sequence (Q14416 19-872): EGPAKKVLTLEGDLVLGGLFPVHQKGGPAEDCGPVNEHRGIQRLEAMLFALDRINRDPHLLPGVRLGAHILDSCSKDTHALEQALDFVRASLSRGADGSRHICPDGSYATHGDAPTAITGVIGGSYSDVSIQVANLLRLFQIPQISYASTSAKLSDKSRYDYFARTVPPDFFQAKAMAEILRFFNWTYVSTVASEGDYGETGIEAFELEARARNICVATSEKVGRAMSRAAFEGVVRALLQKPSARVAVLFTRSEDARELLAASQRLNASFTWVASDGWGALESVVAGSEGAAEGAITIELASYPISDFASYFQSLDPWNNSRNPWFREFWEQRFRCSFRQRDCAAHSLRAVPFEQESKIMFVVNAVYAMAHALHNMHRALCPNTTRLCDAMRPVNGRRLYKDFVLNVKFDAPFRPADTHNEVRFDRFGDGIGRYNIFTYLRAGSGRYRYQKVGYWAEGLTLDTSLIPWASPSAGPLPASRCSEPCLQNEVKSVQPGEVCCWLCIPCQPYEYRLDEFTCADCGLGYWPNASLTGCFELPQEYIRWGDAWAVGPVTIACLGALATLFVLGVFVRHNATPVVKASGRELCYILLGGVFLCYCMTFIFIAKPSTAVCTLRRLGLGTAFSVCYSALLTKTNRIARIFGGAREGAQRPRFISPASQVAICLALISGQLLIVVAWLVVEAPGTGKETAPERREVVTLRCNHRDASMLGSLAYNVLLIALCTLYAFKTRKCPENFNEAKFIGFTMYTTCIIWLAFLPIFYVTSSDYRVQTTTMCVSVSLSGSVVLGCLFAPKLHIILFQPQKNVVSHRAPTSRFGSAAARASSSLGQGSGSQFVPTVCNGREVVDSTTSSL
Number only, in %; omit the unit.

Consider the reported Emax for these compounds:
>  <compound>
C[C@H]1CN(c2ccc(OC(F)(F)F)c(Cl)c2)C(=O)c2c(NC(=O)c3cccnc3)cnn21 [Co. No. 195]

>  <Emax [%]>
105

$$$$
>  <compound>
COc1ccnc(C(=O)Nc2cnn3c2C(=O)N(c2ccc(C(F)(F)F)cc2)C[C@@H]3C)c1 [Co. No. 60]

>  <Emax [%]>
111

$$$$
>  <compound>
COc1cncc(C(=O)Nc2cnn3c2C(=O)N(c2ccc(C(F)(F)F)cc2)C[C@@H]3C)n1 [Co. No. 183]

>  <Emax [%]>
114

$$$$
>  <compound>
Cc1cc(C(=O)Nc2cnn3c2C(=O)N(c2ccc(C(F)(F)F)c(C)c2)C[C@@H]3C)ccn1 [Co. No. 112]

>  <Emax [%]>
106

$$$$
>  <compound>
C[C@H]1CN(c2ccc(Cl)c(Cl)c2)C(=O)c2c(NC(=O)C(F)(F)F)cnn21 [Co. No. 173]

>  <Emax [%]>
104

$$$$
>  <compound>
Cc1cccnc1C(=O)Nc1cnn2c1C(=O)N(c1ccc(C(F)(F)F)cc1)C[C@@H]2C [Co. No. 57]

>  <Emax [%]>
103

$$$$
>  <compound>
C[C@H]1CN(c2ccc(Cl)c(Cl)c2)C(=O)c2c(NC(=O)c3cccnc3N)cnn21 [Co. No. 185]

>  <Emax [%]>
113

$$$$
>  <compound>
Cc1cnc(N)c(C(=O)Nc2cnn3c2C(=O)N(c2ccc(S(F)(F)(F)(F)F)cc2)C[C@@H]3C)c1 [Co. No. 200]

>  <Emax [%]>
111

$$$$

Query COc1ncccc1C(=O)Nc1cnn2c1C(=O)N(c1ccc(C(F)(F)F)cc1)C[C@@H]2C [Co. No. 43] yields Emax of 114

Query C[C@H]1CN(c2ccc(C(F)(F)F)cc2)C(=O)c2c(NC(=O)c3ncco3)cnn21 [Co. No. 63] yields Emax of 109

Query Cc1cc(C(=O)Nc2cnn3c2C(=O)N(c2ccc(Cl)c(Cl)c2)C[C@@H]3C)cc(C)n1 [Co. No. 106] yields Emax of 108
